These measurements were taken from paper PMC7376575.

Molecular target: T1, catalytic domain of MMP-1 (UniProt P03956 106-261)
T1 sequence: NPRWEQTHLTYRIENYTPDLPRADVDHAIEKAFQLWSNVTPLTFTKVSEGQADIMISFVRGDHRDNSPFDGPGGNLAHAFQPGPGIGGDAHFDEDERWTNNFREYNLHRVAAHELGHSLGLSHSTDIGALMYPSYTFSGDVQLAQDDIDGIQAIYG
Experiment: enzyme inhibition assay
Catalogue of pKi values
Would you please state pKi, meaning minus log10 of the concentration in mol/L, as a bare number?

Sample answers from the record:
# BINDER, pKi
rows = [
    ("N-TIMP2 S68E (domain or fragment, native disulfides) CSCSPVHPQQAFCNADVVIRAKAVSEKEVDSGNDIYGNPIKRIQYEIKQIKMFKGPEKDIEFIYTAPESAVCGVSLDVGGKKEYLIAGKAEGDGKMHITLCDFIVPWDTLSTTQKKSLNHRYQMGCE", 9.60),
    ("N-TIMP2 V71W (domain or fragment, native disulfides) CSCSPVHPQQAFCNADVVIRAKAVSEKEVDSGNDIYGNPIKRIQYEIKQIKMFKGPEKDIEFIYTAPSSAWCGVSLDVGGKKEYLIAGKAEGDGKMHITLCDFIVPWDTLSTTQKKSLNHRYQMGCE", 8.52),
    ("N-TIMP2 T99G (domain or fragment, native disulfides) CSCSPVHPQQAFCNADVVIRAKAVSEKEVDSGNDIYGNPIKRIQYEIKQIKMFKGPEKDIEFIYTAPSSAVCGVSLDVGGKKEYLIAGKAEGDGKMHIGLCDFIVPWDTLSTTQKKSLNHRYQMGCE", 10.10),
]

Lookup: Any idea what pKi was measured for N-TIMP2 H97R (domain or fragment, native disulfides) CSCSPVHPQQAFCNADVVIRAKAVSEKEVDSGNDIYGNPIKRIQYEIKQIKMFKGPEKDIEFIYTAPSSAVCGVSLDVGGKKEYLIAGKAEGDGKMRITLCDFIVPWDTLSTTQKKSLNHRYQMGCE ?
Found: 10.51

Lookup: Any idea what pKi was measured for N-TIMP2 T99M (domain or fragment, native disulfides) CSCSPVHPQQAFCNADVVIRAKAVSEKEVDSGNDIYGNPIKRIQYEIKQIKMFKGPEKDIEFIYTAPSSAVCGVSLDVGGKKEYLIAGKAEGDGKMHIMLCDFIVPWDTLSTTQKKSLNHRYQMGCE ?
Found: 10.07

Lookup: Any idea what pKi was measured for N-TIMP2 S68M (domain or fragment, native disulfides) CSCSPVHPQQAFCNADVVIRAKAVSEKEVDSGNDIYGNPIKRIQYEIKQIKMFKGPEKDIEFIYTAPMSAVCGVSLDVGGKKEYLIAGKAEGDGKMHITLCDFIVPWDTLSTTQKKSLNHRYQMGCE ?
Found: 9.74

Lookup: Any idea what pKi was measured for N-TIMP2 T99Q (domain or fragment, native disulfides) CSCSPVHPQQAFCNADVVIRAKAVSEKEVDSGNDIYGNPIKRIQYEIKQIKMFKGPEKDIEFIYTAPSSAVCGVSLDVGGKKEYLIAGKAEGDGKMHIQLCDFIVPWDTLSTTQKKSLNHRYQMGCE ?
Found: 10.00

Lookup: Any idea what pKi was measured for N-TIMP2 V71R (domain or fragment, native disulfides) CSCSPVHPQQAFCNADVVIRAKAVSEKEVDSGNDIYGNPIKRIQYEIKQIKMFKGPEKDIEFIYTAPSSARCGVSLDVGGKKEYLIAGKAEGDGKMHITLCDFIVPWDTLSTTQKKSLNHRYQMGCE ?
Found: 8.25
